Provenance of the data: patent US20250197428A1

For each entry below, report its efflux ratio at 2 h, 5 μM value.
assay: Caco-2 permeation assay, bidirectional permeability; type: in vitro ADME; conditions: human, Caco-2, pH 7.4, 5 μM, Papp(B-A)/Papp(A-B)

The following molecules have reported results that may help.
molecule	efflux ratio at 2 h, 5 μM
O=C(Nc1ccnc(N2CCC(F)(F)CC2)n1)c1ccc(NS(=O)(=O)CCO)cc1N1CC[C@]2(C(F)F)C[C@@H]2C1	≥ 10
C[C@H]1CN(c2cccc(NC(=O)c3ccc(NS(=O)(=O)CCO)cc3N3CC[Si](C)(C)CC3)n2)CCO1	≥ 10
C[Si]1(C)CCN(c2cc(NS(=O)(=O)CCO)ccc2NC(=O)c2ccnc(OCCC(F)(F)F)n2)CC1	< 10
CC(C)(C)NS(=O)(=O)c1cccc(NC(=O)c2ccc(NS(=O)(=O)C(C)(C)C)cc2N2CC[Si](C)(C)CC2)c1	< 10
Cc1cc(NC(=O)c2ccc(NS(=O)(=O)CCO)cc2N2CC[Si](C)(C)CC2)nc(N2CCC(F)(F)CC2)c1	< 10
Cc1cc(NC(=O)c2ccc(NS(=O)(=O)CCO)cc2N2CCC3(C)C(C2)C3(F)F)nc(N2CCC(F)(F)CC2)n1 (stereo not shown)	< 10

# per-item lookup of efflux ratio at 2 h, 5 μM; items listed below
1. COC[C@@]12CCN(c3cc(NS(=O)(=O)CCO)ccc3C(=O)Nc3cc(C)nc(N4CCC(F)(F)CC4)n3)C[C@@H]1C2 (single isomer, unassigned) [Example 49b]
2. Cc1cc(NC(=O)c2ccc(NS(C)(=O)=O)cc2N2CC[Si](C)(C)CC2)nc(N2CC(F)(F)C2)c1
3. C[Si]1(C)CCN(c2cc(NS(=O)(=O)CCO)ccc2C(=O)Nc2ccnc(OCCC(F)(F)F)n2)CC1

1: < 10; 2: < 10; 3: ≥ 10

# per-item lookup of efflux ratio at 2 h, 5 μM; items listed below
1. O=C(Nc1cccc(N2CCC(F)(F)CC2)n1)c1ccc(NS(=O)(=O)CCO)cc1N1CC[C@@]2(C(F)F)C[C@H]2C1
2. Cc1cc(NC(=O)c2ccc(NS(=O)(=O)CCO)cc2N2CC[Si](C)(C)CC2)nc(N2CCOC(F)(F)C2)n1
3. O=C(Nc1ccnc(N2CCC(F)(F)CC2)n1)c1c(F)cc(NS(=O)(=O)CCO)cc1N1CC[C@@]2(C(F)F)C[C@H]2C1

1. < 10
2. ≥ 10
3. ≥ 10

So what's the measured efflux ratio at 2 h, 5 μM for this one? Cc1cc(NC(=O)c2ccc(NS(=O)(=O)CCO)nc2N2CC[Si](C)(C)CC2)nc(N2CCC(F)(F)CC2)n1
< 10

---

For each entry below, report its IC50 value.
tested on: OVCAR-3 cells; test: In vitro anti-proliferative activity assay in cancer cell line OVCAR-3 (CellTiter-Glo, 4- or 7-day); assay type: cell-based; details: Homo sapiens, OVCAR-3, 168 h, 7-day assay; read-out: OVCAR-3 cellular antiproliferation assay IC50

# per-item lookup of IC50; items listed below
1. COC[C@@]12CCN(c3cc(NS(=O)(=O)CCO)ccc3C(=O)Nc3cc(C)nc(N4CCC(F)(F)CC4)n3)C[C@@H]1C2 (single isomer, unassigned) [Example 49b]
2. Cc1cc(NC(=O)c2ccc(NS(=O)(=O)CCO)cc2N2CC[C@]3(C(F)F)C[C@@H]3C2)nc(OC[C@H](O)C(F)(F)F)n1 [Example 67]
3. Cc1cc(NC(=O)c2ccc(S(=O)(=O)NCCO)cc2N2CC[C@]3(C(F)F)C[C@@H]3C2)nc(N2CCC(F)(F)CC2)n1 [Example 77]
4. CNCCS(=O)(=O)Nc1ccc(C(=O)Nc2cccc(N3CCC(F)(F)CC3)n2)c(N2CC[Si](C)(C)CC2)c1 [Example 101]

["< 100 nM", "> 1000 nM", "100 to 500 nM", "100 to 500 nM"]

# per-item lookup of IC50; items listed below
1. Cc1cc(NC(=O)c2ccc(NS(=O)(=O)CCO)cc2N2CC[C@@]3(F)CC[C@H]3C2)nc(N2CCC(F)(F)CC2)n1 (single isomer, unassigned) [Example 50b]
2. Cc1cc(NC(=O)c2ccc(NS(=O)(=O)CCO)nc2N2CC[Si](C)(C)CC2)nc(N2CCC(F)(F)CC2)n1 [Example 109]

100 to 500 nM
500 to 1000 nM
